Ref: PubChem BioAssay AID463199

Test system: S. cerevisiae Burl-1 ts mutant growth, BacTiter-Glo, 38.5C 24 h
Assay: restored growth of temperature-sensitive Burl-1 yeast – whole organism, S. cerevisiae, Burl-1 ts mutant, luminescence, counter-screen for SUMOylation pathway inhibitor project, dose response (AID 463199)
Calls of active or inactive are those of the source.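 How the source made its calls: active means AC50, the dose giving half-maximal effect, exceeds a fixed cutoff for a compound that rescues yeast growth under heat; inactive means the rest, inconclusive results apart.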
Give your call using only these classes: 1 (yes) (active), 0 (no) (inactive)

Observe how each entry below is paired with its result.
> print(dat)
                                   compound                                  testedon  categorylabel
1               CC(C)(C)Cc1nc(-c2ccccn2)no1  S. cerevisiae Burl-1 ts mutant growth, BacTiter-Glo, 38.5C 24 h         0 (no)
2  CNC(=O)NNC(=O)c1csc(-c2ccc(C(F)(F)F)cc2Cl)n1  S. cerevisiae Burl-1 ts mutant growth, BacTiter-Glo, 38.5C 24 h         0 (no)
3       Cc1sc(NC(=O)CSC2=NCCS2)nc1-c1ccccc1  S. cerevisiae Burl-1 ts mutant growth, BacTiter-Glo, 38.5C 24 h         0 (no)
4  CCCOC(=O)c1c(-c2ccc(OC)cc2)oc2ccc(-c3ccc(OC)nc3)cc12  S. cerevisiae Burl-1 ts mutant growth, BacTiter-Glo, 38.5C 24 h         0 (no)
5              Cc1nn(CC(N)=O)c(=O)c2ccccc12  S. cerevisiae Burl-1 ts mutant growth, BacTiter-Glo, 38.5C 24 h         0 (no)
6  COC(=O)c1[nH]c2cc(C)ccc2c1NC(=O)CN1CCN(c2ccccc2OC)CC1  S. cerevisiae Burl-1 ts mutant growth, BacTiter-Glo, 38.5C 24 h         0 (no)
7  CCc1cccc(C)c1NC(=O)CSc1nnc(-c2cc3cc(Br)ccc3o2)n1CC  S. cerevisiae Burl-1 ts mutant growth, BacTiter-Glo, 38.5C 24 h         0 (no)
8               Cc1cccc(NC(=S)NCc2ccco2)c1C  S. cerevisiae Burl-1 ts mutant growth, BacTiter-Glo, 38.5C 24 h         0 (no)

Qu. Which result was noted for this compound in the test: `COc1ccc(CNS(=O)(=O)c2ccc3c(c2)CCN3C(=O)C2CCC2)cc1`
Ans. 0 (no)

Qu. Which result was noted for this compound in the test: `COc1ccccc1CNc1ncnc2c1nnn2Cc1ccccc1`
Ans. 0 (no)

Qu. Which result was noted for this compound in the test: `O=C(N/N=C/c1ccc(Cl)s1)c1ccccc1[N+](=O)[O-]`
Ans. 0 (no)

Qu. Which result was noted for this compound in the test: `COc1ccc(CC(=O)NCCN2CCOCC2)cc1`
Ans. 0 (no)

Qu. Which result was noted for this compound in the test: `c1ccc2c(c1)[nH]c1c(N3CCN(C4CCCCC4)CC3)ncnc12`
Ans. 1 (yes)

Qu. Which result was noted for this compound in the test: `O=C1N=C(N2CCOCC2)S/C1=C\c1cccnc1`
Ans. 0 (no)

Qu. Which result was noted for this compound in the test: `CC(C)Cc1cc(CN2CCC(CO)(Cc3ccccc3)CC2)[nH]n1`
Ans. 0 (no)

Qu. Which result was noted for this compound in the test: `S=C(c1ccc(N2CCOCC2)cc1)N1CCCCC1`
Ans. 0 (no)

Qu. Which result was noted for this compound in the test: `O=C(COc1ccc(-n2cnnn2)cc1)NCCc1ccc(F)cc1`
Ans. 0 (no)
